SYSTEM_UNDER_TEST: SARS-CoV-2 spike trimer (Wuhan) (SARS-CoV-2, UniProt P0DTC2)
ASSAY_DETAILS: competition
MEASURE_NAME: IC50 (µg/mL)
Form entry: value (µg/mL) — number only.

Solved entries:
1) 6R8A-E1 (antibody, V domains shown) VH: EVQLVESGGGLVQPGGSLRLSCKASGYSLAPQAMTWVRQAPGKGLEWIGVIASNADTYYASWAKGRFTISRDNSKNTLYLQMNSLRAEDTAVYYCARHPGSAGYGYQYYYAMDPWGQGTLVTVSS VL: DIQMTQSPSSLSASVGDRVTITCQASENIRYAINWYQQKPGKAPKLLIYGANYRVDGVPSRFSGSGSGTDYTLTISSLQPEDFATYYCQQGYNVPTDFGGGTKVEIKR; 0.0122
2) 6R8A-E11 (antibody, V domains shown) VH: EVQLVESGGGLVQPGGSLRLSCKASGFTFSRQALTWVRQAPGKGLEWIGVIASNADTYYASWAKGRFTISRDNSKNTLYLQMNSLRAEDTAVYYCARHPGSAGYGYQYYYAMDPWGQGTLVTVSS VL: DIQMTQSPSSLSASVGDRVTITCQASENIRYAINWYQQKPGKAPKLLIYGANYRVDGVPSRFSGSGSGTDYTLTISSLQPEDFATYYCQQGYNVPTDFGGGTKVEIKR; 0.0116
3) 6R9A-A2 (antibody, V domains shown) VH: EVQLVESGGGLVQPGGSLRLSCTASGFSFPHQAMTWVRQAPGKGLEWIGVIASNADTYYASWAKGRFTISRDNSKNTLYLQMNSLRAEDTAVYYCARHPGSAGYGYQYYYAMDPWGQGTLVTVSS VL: DIQMTQSPSSLSASVGDRVTITCQASEEVHYGINWYQQKPGKAPKLLIYGANYRVDGVPSRFSGSGSGTDYTLTISSLQPEDFATYYCQQGYNVPTDFGGGTKVEIKR; 0.014
4) 6R8C-G8 (antibody, V domains shown) VH: EVQLVESGGGLVQLGGSLRLSCKASGYSLAPQAMTWVRQAPGKGLEWIGVIASNADTYYASWAKGRFTISRDNSKNTLYLQMNSLRAEDTAVYYCARHPGSAGYGYQYYYAMDPWGQGTLVTVSS VL: DIQMTQSPSSLSASVGDRVTITCQASEEVHYGINWYQQKPGKAPKLLIYGANYRVDGVPSRFSGSGSGTDYTLTISSLQPEDFATYYCQQGYNVPTDFGGGTKVEIKR; 0.0124
5) 6R9B-E9 (antibody, V domains shown) VH: EVQLVESGGGLVQPGGSLRLSCKASGFTFSRQALTWVRQAPGKGLEWIGVIASNADTYYASWAKGRFTISRDNSKNTLYLQMNSLRAEDTAVYYCARHPGSAGYGYQYYYAMDPWGQGTLVTVSS VL: DIQMTQSPSSLSASVGDRVTITCQASENIRYAVNWYQQKPGKAPKLLIYGANYRVDGVPSRFSGSGSGTDYTLTISSLQPEDFATYYCQQGYRVQILFGGGTKVEIKR; 0.0185

input: Read off the recorded IC50 for 6R8A-A2 (antibody, V domains shown) VH: EVQLVESGGGLVQPGGSLRLSCKASGYSLNKQALTWVRQAPGKGLEWIGVIASNADTYYASWAKGRFTISRDNSKNTLYLQMNSLRAEDTAVYYCARHPGSAGYGYQYYYAMDPWGQGTLVTVSS VL: DIQMTQSPSSLSASVGDRVTITCQASEEVHYGINWYQQKPGKAPKLLIYGANYRVDGVPSRFSGSGSGTDYTLTISSLQPEDFATYYCQQGYNVPTDFGGGTKVEIKR
output: 0.0106

input: Read off the recorded IC50 for 6R8C-F10 (antibody, V domains shown) VH: EVQLVESGGGLVQPGGSLRLSCKASGFTFSRQALTWVRQAPGKGLEWIGVIASNADTYYASWAKGRFTISRDNSKNTLYLQMNSLRAEDTAVYYCARHPGSAGYGYQYYYAMDPWGQGTLVTVSS VL: DIQMTQSPSSLSASVGDRVTITCKASEDIRYGLNWYQQKPGKAPKLLIYGANYRVDGVPSRFSGSGSGTDYTLTISSLQPEDFATYYCQQGYNVPNFFGGGTKVEIKR
output: 0.0145

input: Read off the recorded IC50 for 6R9E-A8 (antibody, V domains shown) VH: EVQLVESGGGLVQPGGSLRLSCKASGSTISHQAVTWVRQAPGKGLEWIGVIASNADTYYASWAKGRFTISRDNSKNTLYLQMNSLRAEDTAVYYCARHPGSAGYGYQYYYAMDPWGQGTLVTVSS VL: DIQMTQSPSSLSASVGDRVTITCQASEEVHYGINWYQQKPGKAPKLLIYGANYRVDGVPSRFSGSGSGTDYTLTISSLQPEDFATYYCQQGYNVPTDFGGGTKVEIKR
output: 0.0274

input: Read off the recorded IC50 for Bebtelovimab (antibody, V domains shown) VH: QITLKESGPTLVKPTQTLTLTCTFSGFSLSISGVGVGWLRQPPGKALEWLALIYWDDDKRYSPSLKSRLTISKDTSKNQVVLKMTNIDPVDTATYYCAHHSISTIFDHWGQGTLVTVSS VL: QSALTQPASVSGSPGQSITISCTATSSDVGDYNYVSWYQQHPGKAPKLMIFEVSDRPSGISNRFSGSKSGNTASLTISGLQAEDEADYYCSSYTTSSAVFGGGTKLTVLG
output: 0.00899

input: Read off the recorded IC50 for 6R8A-F2 (antibody, V domains shown) VH: EVQLVESGGGLVQPGGSLRLSCKASGYSLSSQALTWVRQAPGKGLEWIGVIASNADTYYASWAKGRFTISRDNSKNTLYLQMNSLRAEDTAVYYCARHPGSAGYGYQYYYAMDPWGQGTLVTVSS VL: DIQMTQSPSSLSASVGDRVTITCQASEKVYYGVNWYQQKPGKAPKLLIYGTNYRLDGVPSRFSGSGSGTDSTLTISSLQPEDFATYYCQQGYNVPNAFGGGTKVEIKR
output: 0.0169
